Assay: AUC (0 to infinity) in CD1 mouse at 1 mg/kg, iv
Assay type: ADME, organism-based
Parameters: dose 1 mg/kg, route intravenous, time infinity
Conditions: in vivo
assayReadout: AUC(0-inf)
For clarity, give the value followed by its unit.

input: Consider the compound shown here: "C=C(C)[C@@H]1CC[C@]2(NCCN3CCS(=O)(=O)CC3)CC[C@]3(C)[C@H](CC[C@@H]4[C@@]5(C)CC=C(c6ccc(C(=O)O)cc6)C(C)(C)[C@@H]5CC[C@]43C)[C@@H]12" What is its recorded AUC(0-inf)?
output: 21.6 µM·h

###

Test system: Human immunodeficiency virus 1
Assay: microbe, parasite or virus in culture
Conditions: Human immunodeficiency virus 1, MT2
Description: Antiviral activity against wild type HIV1 infected in human MT2 cells after 4 to 5 days in presence of 10% FBS and 40% human serum albumin by dual luciferase reporter gene assay
assayReadout: pEC50
Remember the convention: pEC50 equals -log10 of concentration in molar.

molecule	assaySystem	recordedMeasurement
C=C(C)[C@@H]1CC[C@]2(NCCCN3CCS(=O)(=O)CC3)CC[C@]3(C)[C@H](CC[C@@H]4[C@@]5(C)CC=C(c6ccc(C(=O)O)cc6)C(C)(C)[C@@H]5CC[C@]43C)[C@@H]12	Human immunodeficiency virus 1	7.63

input: Consider the molecule shown here: "C=C(C)[C@@H]1CC[C@]2(NCCC3CCS(=O)(=O)CC3)CC[C@]3(C)[C@H](CC[C@@H]4[C@@]5(C)CC=C(c6ccc(C(=O)O)cc6)C(C)(C)[C@@H]5CC[C@]43C)[C@@H]12" What is its recorded pEC50?
output: 7.43

input: Record: "C=C(C)[C@@H]1CC[C@]2(NCCN3CCC4(C3)CN(S(C)(=O)=O)C4)CC[C@]3(C)[C@H](CC[C@@H]4[C@@]5(C)CC=C(c6ccc(C(=O)O)cc6)C(C)(C)[C@@H]5CC[C@]43C)[C@@H]12"
output: 7.61

input: Record: "C=C(C)[C@@H]1CC[C@]2(NCCN3CCN(S(C)(=O)=O)CC3)CC[C@]3(C)[C@H](CC[C@@H]4[C@@]5(C)CC=C(c6ccc(C(=O)O)cc6)C(C)(C)[C@@H]5CC[C@]43C)[C@@H]12"
output: 7.58

input: Record: C=C(C)[C@@H]1CC[C@]2(NCCNC3CCN(S(C)(=O)=O)C3)CC[C@]3(C)[C@H](CC[C@@H]4[C@@]5(C)CC=C(c6ccc(C(=O)O)cc6)C(C)(C)[C@@H]5CC[C@]43C)[C@@H]12 (stereo not given in full)
output: 7.86

###

Tested on: Human immunodeficiency virus 1
Experiment: microbe, parasite or virus in culture
Settings: Human immunodeficiency virus 1, MT2
Description: Antiviral activity against HIV1 expressing gag delta V370 mutant infected in human MT2 cells after 4 to 5 days by dual luciferase reporter gene assay
assayReadout: pEC50
Remember the convention: pEC50 equals -log10 of concentration in molar.

Would you please look over these solved cases?
molecule	assaySystem	pEC50
C=C(C)[C@@H]1CC[C@]2(NCCN3CCN(S(=O)(=O)C(C)C)CC3)CC[C@]3(C)[C@H](CC[C@@H]4[C@@]5(C)CC=C(c6ccc(C(=O)O)cc6)C(C)(C)[C@@H]5CC[C@]43C)[C@@H]12	Human immunodeficiency virus 1	7.19
C=C(C)[C@@H]1CC[C@]2(NCCN3CCC(F)(F)CC3)CC[C@]3(C)[C@H](CC[C@@H]4[C@@]5(C)CC=C(c6ccc(C(=O)O)cc6)C(C)(C)[C@@H]5CC[C@]43C)[C@@H]12	Human immunodeficiency virus 1	7.17
C=C(C)[C@@H]1CC[C@]2(NCCN3CCS(=O)(=O)CC3)CC[C@]3(C)[C@H](CC[C@@H]4[C@@]5(C)CC=C(c6ccc(C(=O)O)c(F)c6)C(C)(C)[C@@H]5CC[C@]43C)[C@@H]12	Human immunodeficiency virus 1	8.01
C=C(C)[C@@H]1CC[C@]2(NCCN3CC4C(C3)C4NS(C)(=O)=O)CC[C@]3(C)[C@H](CC[C@@H]4[C@@]5(C)CC=C(c6ccc(C(=O)O)cc6)C(C)(C)[C@@H]5CC[C@]43C)[C@@H]12 (stereo not given in full)	Human immunodeficiency virus 1	7.74

Field: next molecule
input: Consider the molecule shown here: "C=C(C)[C@@H]1CC[C@]2(NCCN3CCN(S(=O)(=O)CC)CC3)CC[C@]3(C)[C@H](CC[C@@H]4[C@@]5(C)CC=C(c6ccc(C(=O)O)cc6)C(C)(C)[C@@H]5CC[C@]43C)[C@@H]12" What is its recorded pEC50?
output: 7.71
